Kindly state pIC50 for each of the entries shown.
Target: CYP1A2 (Homo sapiens, UniProt P05177)
Sequence (P05177 whole entry): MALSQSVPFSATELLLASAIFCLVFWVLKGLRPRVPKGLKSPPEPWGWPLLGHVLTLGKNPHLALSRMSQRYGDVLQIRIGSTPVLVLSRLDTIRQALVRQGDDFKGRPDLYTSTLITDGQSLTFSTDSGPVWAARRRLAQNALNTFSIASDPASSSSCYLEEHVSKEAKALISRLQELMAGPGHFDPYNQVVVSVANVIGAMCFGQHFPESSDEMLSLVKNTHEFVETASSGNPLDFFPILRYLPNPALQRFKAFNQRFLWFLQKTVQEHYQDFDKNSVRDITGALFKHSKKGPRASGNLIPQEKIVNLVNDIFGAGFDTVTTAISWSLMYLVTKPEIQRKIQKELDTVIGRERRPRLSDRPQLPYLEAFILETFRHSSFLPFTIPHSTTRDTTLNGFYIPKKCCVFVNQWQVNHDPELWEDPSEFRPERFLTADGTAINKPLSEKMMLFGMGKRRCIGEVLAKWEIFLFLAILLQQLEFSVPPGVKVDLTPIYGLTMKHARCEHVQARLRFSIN
Test: CYP1A2 inhibition in Sacchrosomes
Format: biochemical
Numbers only, as −log10 of the molar value.

> print(dat)
                           compound.string                            measured.on  outcome.measure  measured.value
1  COc1c(C(=O)C=Cc2ccsc2)c(O)c(OC)c2occc12  CYP1A2 (Homo sapiens, UniProt P05177)            pIC50            5.38

Now consider the entry below.
In: GET /values?readout=pIC50&item= COc1c(C(=O)C=Cc2cccnc2)c(O)c(OC)c2occc12
Out: 6.77
